Target: JAK2 (Homo sapiens)
Construct: lines 1-140) and Reaction Biology
Sequence (O60674 whole entry): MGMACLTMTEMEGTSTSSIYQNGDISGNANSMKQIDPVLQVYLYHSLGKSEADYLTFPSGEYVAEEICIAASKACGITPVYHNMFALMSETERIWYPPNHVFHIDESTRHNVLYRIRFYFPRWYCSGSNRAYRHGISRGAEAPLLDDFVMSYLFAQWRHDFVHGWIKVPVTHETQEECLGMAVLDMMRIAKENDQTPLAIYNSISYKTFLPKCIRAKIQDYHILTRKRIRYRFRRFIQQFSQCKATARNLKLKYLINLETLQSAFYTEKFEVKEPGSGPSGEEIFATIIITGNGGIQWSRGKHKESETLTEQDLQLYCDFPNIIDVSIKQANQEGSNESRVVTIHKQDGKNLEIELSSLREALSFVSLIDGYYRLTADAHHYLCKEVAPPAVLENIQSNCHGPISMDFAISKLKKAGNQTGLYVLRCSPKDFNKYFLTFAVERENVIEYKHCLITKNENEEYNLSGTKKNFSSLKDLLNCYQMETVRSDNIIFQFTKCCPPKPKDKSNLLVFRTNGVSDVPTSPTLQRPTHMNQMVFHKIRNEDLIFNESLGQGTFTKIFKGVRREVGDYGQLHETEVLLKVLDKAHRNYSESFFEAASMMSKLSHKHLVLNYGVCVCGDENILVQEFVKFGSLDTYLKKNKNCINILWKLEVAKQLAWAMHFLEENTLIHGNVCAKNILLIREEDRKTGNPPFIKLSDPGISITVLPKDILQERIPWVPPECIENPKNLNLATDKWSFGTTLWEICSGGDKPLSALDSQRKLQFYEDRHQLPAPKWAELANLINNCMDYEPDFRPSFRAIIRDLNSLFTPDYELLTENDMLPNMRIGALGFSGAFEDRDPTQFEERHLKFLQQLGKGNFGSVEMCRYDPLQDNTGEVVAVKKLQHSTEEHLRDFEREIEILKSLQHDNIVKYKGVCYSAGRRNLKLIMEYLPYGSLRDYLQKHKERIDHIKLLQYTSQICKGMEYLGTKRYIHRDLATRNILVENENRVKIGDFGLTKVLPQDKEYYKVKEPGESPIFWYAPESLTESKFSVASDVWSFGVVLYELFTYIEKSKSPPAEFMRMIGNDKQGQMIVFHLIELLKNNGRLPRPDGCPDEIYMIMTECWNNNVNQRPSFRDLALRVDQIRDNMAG
Assay: Dundee kinase panel
Assay type: biochemical
Conditions: read-out: residual activity
What remaining activity at 1 µM was measured for each of the following?
One number for each entry, in %.

Solved entries:
chemicalString: Oc1ncnc2c1c(-c1ccccc1)cn2-c1ccccc1
testValue: 94
//
chemicalString: O=C1Nc2ccc(I)cc2/C1=C/c1cc(Br)c(O)c(Br)c1
testValue: 82
//
chemicalString: O=C1Cc2c([nH]c3ccc(Br)cc23)-c2ccccc2N1
testValue: 105

Notebook: COCCOc1ccc(-c2cn(-c3ccccc3)c3nc[nH]c(=O)c23)cc1 , remaining activity at 1 µM read as 70

* * *

Target: TLK1 (Homo sapiens, UniProt Q9UKI8)
Construct: lines 1-140) and Reaction Biology
Sequence (Q9UKI8 whole entry): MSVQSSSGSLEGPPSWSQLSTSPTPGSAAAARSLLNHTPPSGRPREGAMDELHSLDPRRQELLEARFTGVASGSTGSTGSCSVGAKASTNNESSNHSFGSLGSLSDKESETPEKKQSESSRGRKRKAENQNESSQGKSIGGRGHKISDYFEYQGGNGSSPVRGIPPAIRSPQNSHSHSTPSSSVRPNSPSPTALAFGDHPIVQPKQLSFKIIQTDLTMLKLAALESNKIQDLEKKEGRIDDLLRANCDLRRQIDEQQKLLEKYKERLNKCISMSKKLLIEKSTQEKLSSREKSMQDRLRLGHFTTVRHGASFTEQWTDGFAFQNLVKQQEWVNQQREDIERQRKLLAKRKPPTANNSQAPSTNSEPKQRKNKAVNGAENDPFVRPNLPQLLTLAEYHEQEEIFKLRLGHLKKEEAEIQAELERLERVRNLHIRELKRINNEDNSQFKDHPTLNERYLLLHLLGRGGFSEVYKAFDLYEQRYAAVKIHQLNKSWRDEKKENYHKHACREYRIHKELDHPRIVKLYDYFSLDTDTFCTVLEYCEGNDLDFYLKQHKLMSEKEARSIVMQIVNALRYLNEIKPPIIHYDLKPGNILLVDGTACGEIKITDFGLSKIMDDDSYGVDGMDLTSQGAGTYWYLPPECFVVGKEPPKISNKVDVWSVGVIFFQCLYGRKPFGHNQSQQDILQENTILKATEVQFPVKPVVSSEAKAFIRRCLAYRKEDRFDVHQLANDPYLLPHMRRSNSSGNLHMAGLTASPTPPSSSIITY
Experiment: Dundee kinase panel
Format: biochemical
Conditions: read-out: residual activity
What remaining activity at 1 µM was measured for each of the following?
Report field: quantity (unit follows the number).

Solved entries:
compound: O=C1Nc2ccc(I)cc2/C1=C/c1cc(Br)c(O)c(Br)c1 [GW5074]
testValue: 86%
//
compound: COCCOc1ccc(-c2cn(-c3ccccc3)c3nc[nH]c(=O)c23)cc1 [DMX-5804]
testValue: 111%
//
compound: Oc1ncnc2c1c(-c1ccccc1)cn2-c1ccccc1 [F1386-0303]
testValue: 103%

Please find the next compound below.
Notebook: O=C1Cc2c([nH]c3ccc(Br)cc23)-c2ccccc2N1 [Kenpaullone] , remaining activity at 1 µM read as 95%

* * *

What remaining activity at 1 µM was measured for each of the following?
Target: SmMLCK (Homo sapiens, UniProt Q15746)
Construct: lines 1-140) and Reaction Biology
Test: Dundee kinase panel
Format: biochemical
Settings: read-out: residual activity
Numbers only, in %.

chemicalString: COCCOc1ccc(-c2cn(-c3ccccc3)c3nc[nH]c(=O)c23)cc1
assayTarget: SmMLCK (Homo sapiens, UniProt Q15746)
unitsText: %
remaining activity at 1 µM: 89

Could I get remaining activity at 1 µM for every one of these entries?
1. O=C1Nc2ccc(I)cc2/C1=C/c1cc(Br)c(O)c(Br)c1
2. Oc1ncnc2c1c(-c1ccccc1)cn2-c1ccccc1
3. O=C1Cc2c([nH]c3ccc(Br)cc23)-c2ccccc2N1

[reply]
40
76
97

* * *

What remaining activity at 1 µM was measured for each of the following?
Biological target: STK33 (Homo sapiens)
Construct: lines 1-140) and Reaction Biology
Test: Dundee kinase panel
Assay type: biochemical
Conditions: read-out: residual activity
Method: Compounds were screened at 1 μM. For key hits, pIC50 values were then determined by HTRF as above. […] Stability in mouse and human liver microsomes was determined by Cyprotex.
Report field: quantity (unit follows the number).

Could I get remaining activity at 1 µM for every one of these entries?
1. Oc1ncnc2c1c(-c1ccccc1)cn2-c1ccccc1 [F1386-0303]
2. O=C1Cc2c([nH]c3ccc(Br)cc23)-c2ccccc2N1 [Kenpaullone]
3. COCCOc1ccc(-c2cn(-c3ccccc3)c3nc[nH]c(=O)c23)cc1 [DMX-5804]
4. O=C1Nc2ccc(I)cc2/C1=C/c1cc(Br)c(O)c(Br)c1 [GW5074]

[reply]
99%
92%
97%
71%

* * *

Biological target: FGF-R1 (Homo sapiens, UniProt P11362)
Construct: lines 1-140) and Reaction Biology
Assay: Dundee kinase panel
Type: biochemical
Conditions: read-out: residual activity
reportedEndpoint: remaining activity at 1 µM (%)
One number for each entry, in %.

Solved entries:
chemicalString: COCCOc1ccc(-c2cn(-c3ccccc3)c3nc[nH]c(=O)c23)cc1
unitsText: %
remaining activity at 1 µM: 69
//
chemicalString: O=C1Cc2c([nH]c3ccc(Br)cc23)-c2ccccc2N1
unitsText: %
remaining activity at 1 µM: 108
//
chemicalString: Oc1ncnc2c1c(-c1ccccc1)cn2-c1ccccc1
unitsText: %
remaining activity at 1 µM: 99

Notebook: O=C1Nc2ccc(I)cc2/C1=C/c1cc(Br)c(O)c(Br)c1 , remaining activity at 1 µM read as 89

* * *

Biological target: JNK1 (Homo sapiens)
Construct: lines 1-140) and Reaction Biology
Sequence (P45983 whole entry): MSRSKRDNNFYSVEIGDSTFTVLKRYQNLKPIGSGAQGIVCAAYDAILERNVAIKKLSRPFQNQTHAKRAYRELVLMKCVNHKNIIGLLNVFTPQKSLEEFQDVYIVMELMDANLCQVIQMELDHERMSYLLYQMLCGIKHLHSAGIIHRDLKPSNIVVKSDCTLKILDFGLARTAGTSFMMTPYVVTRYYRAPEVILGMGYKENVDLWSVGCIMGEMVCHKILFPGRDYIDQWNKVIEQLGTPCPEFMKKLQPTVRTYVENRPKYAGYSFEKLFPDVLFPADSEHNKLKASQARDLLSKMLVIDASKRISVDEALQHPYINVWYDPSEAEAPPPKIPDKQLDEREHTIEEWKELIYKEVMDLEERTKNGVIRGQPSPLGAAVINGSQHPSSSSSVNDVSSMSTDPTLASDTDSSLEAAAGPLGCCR
Experiment: Dundee kinase panel
Type: biochemical
Details: read-out: residual activity
reportedEndpoint: remaining activity at 1 µM (%)
Give bare numbers, in %.

compound: Oc1ncnc2c1c(-c1ccccc1)cn2-c1ccccc1 [F1386-0303]
assayTarget: JNK1 (Homo sapiens)
remaining activity at 1 µM [%]: 99
--
compound: O=C1Nc2ccc(I)cc2/C1=C/c1cc(Br)c(O)c(Br)c1 [GW5074]
assayTarget: JNK1 (Homo sapiens)
remaining activity at 1 µM [%]: 70
--
compound: O=C1Cc2c([nH]c3ccc(Br)cc23)-c2ccccc2N1 [Kenpaullone]
assayTarget: JNK1 (Homo sapiens)
remaining activity at 1 µM [%]: 100

Please find the next compound below.
Considering COCCOc1ccc(-c2cn(-c3ccccc3)c3nc[nH]c(=O)c23)cc1 [DMX-5804] , its remaining activity at 1 µM with JNK1 (Homo sapiens) was recorded as 122

* * *

Biological target: hERG (Homo sapiens, UniProt Q12809)
Construct: stably expressing full length hERG
Sequence (Q12809 whole entry): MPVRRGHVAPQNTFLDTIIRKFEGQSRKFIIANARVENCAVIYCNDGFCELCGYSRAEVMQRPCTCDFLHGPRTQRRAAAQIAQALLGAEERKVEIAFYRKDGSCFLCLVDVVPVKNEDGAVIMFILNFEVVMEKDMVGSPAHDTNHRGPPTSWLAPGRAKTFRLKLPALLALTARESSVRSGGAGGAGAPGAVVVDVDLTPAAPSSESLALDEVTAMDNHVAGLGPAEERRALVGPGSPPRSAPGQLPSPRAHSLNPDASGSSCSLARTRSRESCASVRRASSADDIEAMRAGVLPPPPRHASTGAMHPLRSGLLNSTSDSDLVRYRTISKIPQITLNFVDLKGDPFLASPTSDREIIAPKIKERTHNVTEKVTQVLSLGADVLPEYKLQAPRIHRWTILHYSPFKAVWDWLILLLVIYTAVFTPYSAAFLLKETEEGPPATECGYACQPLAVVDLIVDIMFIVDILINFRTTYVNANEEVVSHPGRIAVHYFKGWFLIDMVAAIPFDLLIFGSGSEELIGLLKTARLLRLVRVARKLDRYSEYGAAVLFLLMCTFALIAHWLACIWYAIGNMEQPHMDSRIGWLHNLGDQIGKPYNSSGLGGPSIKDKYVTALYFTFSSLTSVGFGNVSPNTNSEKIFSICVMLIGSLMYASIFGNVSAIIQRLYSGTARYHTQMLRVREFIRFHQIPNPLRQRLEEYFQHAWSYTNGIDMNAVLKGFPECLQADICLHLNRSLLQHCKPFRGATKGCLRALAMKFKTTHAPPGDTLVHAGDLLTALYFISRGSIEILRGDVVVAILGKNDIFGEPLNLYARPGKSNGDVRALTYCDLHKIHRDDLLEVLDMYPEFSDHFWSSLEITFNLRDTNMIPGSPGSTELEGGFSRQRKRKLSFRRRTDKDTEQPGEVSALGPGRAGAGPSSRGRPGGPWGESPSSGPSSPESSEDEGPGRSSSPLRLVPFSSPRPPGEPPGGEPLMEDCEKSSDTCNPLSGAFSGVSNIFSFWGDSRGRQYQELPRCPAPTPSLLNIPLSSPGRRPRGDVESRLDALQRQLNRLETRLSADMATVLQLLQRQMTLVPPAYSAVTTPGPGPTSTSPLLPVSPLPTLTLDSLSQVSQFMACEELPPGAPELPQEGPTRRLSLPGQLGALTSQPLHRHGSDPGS
Assay: Ion channel safety screening (Patchliner whole-cell patch clamp)
Details: hERG; CHO cells; 4-parameter logistic fit
reportedEndpoint: IC50

Notebook: COCCOc1ccc(-c2cn(-c3ccccc3)c3nc[nH]c(=O)c23)cc1 , IC50 read as > 30 µM

* * *

Biological target: hCaV1.2 (Homo sapiens)
Construct: HEK293 cells stably expressing full length hCaV1.2
Assay: Ion channel safety screening (Patchliner whole-cell patch clamp)
Conditions: hCaV1.2; HEK cells; 4-parameter logistic fit
reportedEndpoint: IC50

Notebook: COCCOc1ccc(-c2cn(-c3ccccc3)c3nc[nH]c(=O)c23)cc1 , IC50 read as > 30 µM

* * *

Experiment: Oral PK
Type: in vivo, female CD-1 mice
Conditions: female, CD-1, mouse; Oral PK (50 mg kg^−1); mice; plasma
reportedEndpoint: half-life (h)
Answers are plain numbers, in h.

compound: Oc1ncnc2c1c(-c1ccccc1)cn2-c1ccccc1 [F1386-0303]
half-life / h: 3.7

Please find the next compound below.
Notebook: COCCOc1ccc(-c2cn(-c3ccccc3)c3nc[nH]c(=O)c23)cc1 [DMX-5804] , half-life read as 1.8

* * *

Molecular target: MKK6 (Homo sapiens, UniProt P52564)
Construct: lines 1-140) and Reaction Biology
Sequence (P52564 1-334): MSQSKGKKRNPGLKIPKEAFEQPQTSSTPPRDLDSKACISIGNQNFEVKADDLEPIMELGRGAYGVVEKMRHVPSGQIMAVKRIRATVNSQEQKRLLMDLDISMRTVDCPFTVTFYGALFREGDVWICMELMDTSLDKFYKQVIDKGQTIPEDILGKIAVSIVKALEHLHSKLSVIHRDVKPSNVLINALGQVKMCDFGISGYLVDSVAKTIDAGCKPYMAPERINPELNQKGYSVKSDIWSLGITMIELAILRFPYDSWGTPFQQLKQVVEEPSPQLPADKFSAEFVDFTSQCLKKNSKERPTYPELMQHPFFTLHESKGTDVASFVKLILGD
Experiment: Dundee kinase panel
Assay type: biochemical
Conditions: read-out: residual activity
reportedEndpoint: remaining activity at 1 µM (%)
One number for each entry, in %.

Solved entries:
chemicalString: O=C1Nc2ccc(I)cc2/C1=C/c1cc(Br)c(O)c(Br)c1
remaining activity at 1 µM (%): 81

chemicalString: O=C1Cc2c([nH]c3ccc(Br)cc23)-c2ccccc2N1
remaining activity at 1 µM (%): 102

chemicalString: Oc1ncnc2c1c(-c1ccccc1)cn2-c1ccccc1
remaining activity at 1 µM (%): 105

Please find the next compound below.
Considering COCCOc1ccc(-c2cn(-c3ccccc3)c3nc[nH]c(=O)c23)cc1 , its remaining activity at 1 µM with MKK6 (Homo sapiens, UniProt P52564) was recorded as 112

* * *

Molecular target: MNK1 (Homo sapiens)
Construct: lines 1-140) and Reaction Biology
Sequence (Q9BUB5 whole entry): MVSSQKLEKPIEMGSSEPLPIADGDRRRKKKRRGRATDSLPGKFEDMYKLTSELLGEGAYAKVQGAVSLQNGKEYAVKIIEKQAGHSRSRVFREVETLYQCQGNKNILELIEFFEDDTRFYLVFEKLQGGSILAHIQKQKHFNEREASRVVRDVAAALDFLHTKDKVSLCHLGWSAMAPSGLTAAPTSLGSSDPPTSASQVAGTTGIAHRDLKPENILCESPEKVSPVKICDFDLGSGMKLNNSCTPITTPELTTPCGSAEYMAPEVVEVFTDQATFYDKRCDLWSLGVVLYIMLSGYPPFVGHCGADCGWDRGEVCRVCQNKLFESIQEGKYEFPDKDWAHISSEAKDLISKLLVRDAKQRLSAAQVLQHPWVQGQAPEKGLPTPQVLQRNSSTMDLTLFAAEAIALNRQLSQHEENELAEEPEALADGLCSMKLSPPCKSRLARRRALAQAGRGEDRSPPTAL
Experiment: Dundee kinase panel
Type: biochemical
Conditions: read-out: residual activity
What remaining activity at 1 µM was measured for each of the following?
Give bare numbers, in %.

compound: Oc1ncnc2c1c(-c1ccccc1)cn2-c1ccccc1 [F1386-0303]
assayTarget: MNK1 (Homo sapiens)
reportedEndpoint: remaining activity at 1 µM
testValue: 102
//
compound: O=C1Nc2ccc(I)cc2/C1=C/c1cc(Br)c(O)c(Br)c1 [GW5074]
assayTarget: MNK1 (Homo sapiens)
reportedEndpoint: remaining activity at 1 µM
testValue: 82
//
compound: COCCOc1ccc(-c2cn(-c3ccccc3)c3nc[nH]c(=O)c23)cc1 [DMX-5804]
assayTarget: MNK1 (Homo sapiens)
reportedEndpoint: remaining activity at 1 µM
testValue: 90

Please find the next compound below.
Notebook: O=C1Cc2c([nH]c3ccc(Br)cc23)-c2ccccc2N1 [Kenpaullone] , remaining activity at 1 µM read as 91

* * *

What remaining activity at 1 µM was measured for each of the following?
Molecular target: ULK1 (Homo sapiens)
Construct: lines 1-140) and Reaction Biology
Sequence (O75385 whole entry): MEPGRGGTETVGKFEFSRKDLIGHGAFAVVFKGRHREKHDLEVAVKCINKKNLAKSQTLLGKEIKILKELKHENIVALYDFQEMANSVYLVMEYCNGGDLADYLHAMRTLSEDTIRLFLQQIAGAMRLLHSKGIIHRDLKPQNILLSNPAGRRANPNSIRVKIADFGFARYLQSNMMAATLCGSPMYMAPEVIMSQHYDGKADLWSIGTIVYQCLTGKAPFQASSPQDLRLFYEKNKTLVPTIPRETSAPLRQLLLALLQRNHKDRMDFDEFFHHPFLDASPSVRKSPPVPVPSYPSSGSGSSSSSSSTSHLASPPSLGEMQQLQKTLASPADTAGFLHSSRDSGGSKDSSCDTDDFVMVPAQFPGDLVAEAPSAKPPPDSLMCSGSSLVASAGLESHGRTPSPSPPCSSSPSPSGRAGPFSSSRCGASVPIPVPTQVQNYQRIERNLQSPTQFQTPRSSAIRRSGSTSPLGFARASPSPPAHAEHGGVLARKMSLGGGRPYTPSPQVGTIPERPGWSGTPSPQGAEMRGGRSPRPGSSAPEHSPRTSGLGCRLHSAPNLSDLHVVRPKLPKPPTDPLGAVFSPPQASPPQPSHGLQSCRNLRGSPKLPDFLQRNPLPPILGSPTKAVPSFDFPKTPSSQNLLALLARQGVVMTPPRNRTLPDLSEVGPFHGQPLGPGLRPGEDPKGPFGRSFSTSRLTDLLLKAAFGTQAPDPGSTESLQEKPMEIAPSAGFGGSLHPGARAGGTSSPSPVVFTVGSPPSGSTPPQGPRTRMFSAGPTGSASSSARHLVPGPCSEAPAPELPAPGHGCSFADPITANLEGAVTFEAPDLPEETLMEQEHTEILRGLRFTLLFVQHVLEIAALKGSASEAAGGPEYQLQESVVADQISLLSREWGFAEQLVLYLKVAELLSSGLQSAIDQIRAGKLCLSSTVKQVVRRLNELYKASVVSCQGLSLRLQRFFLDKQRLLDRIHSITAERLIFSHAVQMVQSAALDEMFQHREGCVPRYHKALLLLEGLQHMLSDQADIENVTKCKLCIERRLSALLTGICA
Assay: Dundee kinase panel
Assay type: biochemical
Conditions: read-out: residual activity
Procedure: Compounds were screened at 1 μM. For key hits, pIC50 values were then determined by HTRF as above. […] Stability in mouse and human liver microsomes was determined by Cyprotex.
Give bare numbers, in %.

chemicalString: O=C1Cc2c([nH]c3ccc(Br)cc23)-c2ccccc2N1
assayTarget: ULK1 (Homo sapiens)
unitsText: %
testValue: 107
//
chemicalString: Oc1ncnc2c1c(-c1ccccc1)cn2-c1ccccc1
assayTarget: ULK1 (Homo sapiens)
unitsText: %
testValue: 84
//
chemicalString: COCCOc1ccc(-c2cn(-c3ccccc3)c3nc[nH]c(=O)c23)cc1
assayTarget: ULK1 (Homo sapiens)
unitsText: %
testValue: 82

Please find the next compound below.
Notebook: O=C1Nc2ccc(I)cc2/C1=C/c1cc(Br)c(O)c(Br)c1 , remaining activity at 1 µM read as 97
